Molecular target: ACK1 (Homo sapiens, UniProt Q07912)
Sequence (Q07912 whole entry): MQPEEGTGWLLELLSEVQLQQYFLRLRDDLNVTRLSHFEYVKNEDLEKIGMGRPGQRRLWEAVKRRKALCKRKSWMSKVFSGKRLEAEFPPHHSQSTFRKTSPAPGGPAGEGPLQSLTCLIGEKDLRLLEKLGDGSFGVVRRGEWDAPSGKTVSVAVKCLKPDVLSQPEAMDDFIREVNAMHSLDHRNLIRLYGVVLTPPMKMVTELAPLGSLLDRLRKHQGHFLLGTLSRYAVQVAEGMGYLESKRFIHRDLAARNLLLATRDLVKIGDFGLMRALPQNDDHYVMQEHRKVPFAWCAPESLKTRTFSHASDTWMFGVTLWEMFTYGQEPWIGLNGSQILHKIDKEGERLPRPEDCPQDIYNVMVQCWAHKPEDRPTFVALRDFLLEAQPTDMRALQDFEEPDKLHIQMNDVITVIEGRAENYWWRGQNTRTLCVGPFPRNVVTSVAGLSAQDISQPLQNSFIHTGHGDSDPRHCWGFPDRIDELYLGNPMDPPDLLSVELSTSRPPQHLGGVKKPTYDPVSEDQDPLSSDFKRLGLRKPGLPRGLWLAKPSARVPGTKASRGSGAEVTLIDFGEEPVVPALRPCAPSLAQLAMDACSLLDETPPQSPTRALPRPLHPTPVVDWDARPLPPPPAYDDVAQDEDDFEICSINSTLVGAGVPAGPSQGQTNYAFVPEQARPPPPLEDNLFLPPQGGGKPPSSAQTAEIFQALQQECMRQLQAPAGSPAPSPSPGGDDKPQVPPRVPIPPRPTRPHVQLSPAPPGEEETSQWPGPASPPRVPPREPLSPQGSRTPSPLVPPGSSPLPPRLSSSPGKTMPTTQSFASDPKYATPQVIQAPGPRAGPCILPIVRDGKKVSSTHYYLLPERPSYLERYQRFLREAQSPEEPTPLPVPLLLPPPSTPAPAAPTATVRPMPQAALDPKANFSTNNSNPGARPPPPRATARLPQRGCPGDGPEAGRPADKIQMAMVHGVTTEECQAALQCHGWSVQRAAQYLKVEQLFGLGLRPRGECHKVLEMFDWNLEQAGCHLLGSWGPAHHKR
Experiment: ACK1 ELISA: phosphorylation of AKT-derived peptide
Format: biochemical
Settings: 10 μM; Table 1, replicate values listed; read-out: % Inhibition at 10 μM (ELISA)
# inhibition at 10 µM annotations
Express the result in % but write the number alone.

Record excerpt, results attached:
Cl.O=C(Nc1c(F)cccc1Cl)c1cnc(Nc2ccc(N3CCOCC3)cc2)nc1NCC1CCCO1 (centres unmarked) [DZ1-092] = 77
CC(C)(C)OC(=O)N1CCN(c2ccc(Nc3ncc(C(=O)Nc4c(F)cccc4Cl)c(NCC4CCCO4)n3)cc2)CC1.Cl (centres unmarked) [YL9-161, hydrochloride] = 28
Cl.O=C(Nc1c(F)cccc1Cl)c1cnc(Nc2ccc(O)c(Cl)c2)nc1NCC1CCCO1 (centres unmarked) [YL8-009-1, hydrochloride] = 41
CN1CCN(c2ccc(Nc3ncc(Cl)c(NC[C@@H]4CCCO4)n3)cc2)CC1 [DZ1-077] = 93
Cl.O=C(O)Cc1ccc(Nc2ncc(Br)c(NCC3CCCO3)n2)cc1 (centres unmarked) [NT1-022] = 59
Cl.NS(=O)(=O)c1ccc(Nc2ncc(Br)c(NCC3CCCO3)n2)cc1 (centres unmarked) [YL8-003-3, hydrochloride] = 56
Cl.O=C(Nc1c(F)cccc1Cl)c1cnc(Nc2ccc(O)c(F)c2)nc1NCC1CCCO1 (centres unmarked) [YL7-170-2, hydrochloride] = 65

Now take the following compound into account.
Lookup: Record request: inhibition at 10 µM value, item CCCS(=O)(=O)c1ccccc1Nc1nc(Nc2ccc(O)cc2)ncc1C(=O)Nc1c(F)cccc1Cl [YL7-055-2]
Found: 57

* * *

Molecular target: ACK1 (Homo sapiens, UniProt Q07912)
Assay: ACK1 ELISA: phosphorylation of AKT-derived peptide
Format: biochemical
Settings: 10 μM; Table 1, replicate values listed; read-out: % Inhibition at 10 μM (ELISA)
Please enter Yes where inhibition at 10 µM is greater than or equal to 70%, and No where it is lower.

CCOC(=O)C1CCN(c2ccc(Nc3ncc(Br)c(NCC4CCCO4)n3)cc2)CC1.Cl (stereo not drawn) = No
CCCSc1ccccc1Nc1nc(Nc2ccc(O)cc2)ncc1C(=O)Nc1c(F)cccc1Cl = No
CSc1ccccc1Nc1nc(Cl)ncc1C(=O)Nc1c(F)cccc1Cl = No
Cl.Oc1ccc(Nc2ncc(F)c(NCC3CCCO3)n2)cc1F (stereo not drawn) [YL7-164, hydrochloride] = No
O=C(O)C1CCN(c2ccc(Nc3ncc(Cl)c(NCC4CCCO4)n3)cc2)CC1 (stereo not drawn) = Yes
CN1CCN(c2ccc(Nc3ncc(Cl)c(NC[C@H]4CCCO4)n3)cc2)CC1 = Yes

Read the next record carefully.
Lookup: Dear colleague, could you confirm whether O=C(O)CCC(=O)N1CCN(c2ccc(Nc3ncc(C(=O)Nc4c(F)cccc4Cl)c(NCC4CCCO4)n3)cc2)CC1 (stereo not drawn) has inhibition at 10 µM at or above 70%?
Found: Yes

* * *

Target: ACK1 (Homo sapiens, UniProt Q07912)
Assay: 32P Hotspot assay (Reaction Biology), ACK1 IC50
Assay type: biochemical
Details: Table 1, nM; (RB) = Reaction Biology; replicates listed; read-out: IC50
Reported IC50 values for a set of compounds

Solved entries:
CCOC(=O)C1CCN(c2ccc(Nc3ncc(Cl)c(NCC4CCCO4)n3)cc2)CC1.Cl (stereo not shown) [YL8-047, hydrochloride] = 108 nM
Cl.Oc1ccc(Nc2ncc(Br)c(NCC3CCCO3)n2)cc1F (stereo not shown) [SK1-044] = 299 nM
Cc1cc(Nc2ncc(Br)c(NCC3CCCO3)n2)ccc1O.Cl (stereo not shown) [SK1-040] = 99.5 nM

Next compound, IC50 to be filled in.
Lookup: // lookup IC50 for O=C(Nc1c(F)cccc1Cl)c1cnc(Nc2ccc(O)cc2)nc1NCC1CCCO1 (stereo not shown) [YL7-104-2]
Found: 54.4 nM
